Value source: patent US20240124504A1

TEST PROTOCOL: Caco-2 membrane permeability and efflux rate
Format: in vitro ADME
RUN CONDITIONS: human, Caco-2, Caco-2, 5 μM, basal end to top end
VALUE TYPE: Papp B→A at 2 h, 5 μM (×10⁻⁶ cm/s)

>>> observed_measurement("CP(C)(=O)c1cccc2c(-c3nc(N[C@@H]4CCC[C@H]4O)ncc3C(F)(F)F)c[nH]c12 [Compound 156]")
20.6
>>> observed_measurement("CP(C)(=O)c1cccc2c(-c3nc(N[C@H]4CC[C@H](O)C4)ncc3C(F)(F)F)c[nH]c12 [Compound 83]")
32.4
>>> observed_measurement("CP(C)(=O)c1cccc2c(-c3nc(N[C@@H]4CC[C@H]4O)ncc3C(F)(F)F)c[nH]c12 [Compound 153]")
24.8
>>> observed_measurement("C[C@@H](CO)Nc1ncc(C#N)c(-c2c[nH]c3c(P(C)(C)=O)cccc23)n1 [Compound 179]")
33.5
>>> observed_measurement("CP(C)(=O)c1cccc2c(-c3nc(N[C@H]4COC[C@@H]4O)ncc3C(F)(F)F)c[nH]c12 [Compound 87]")
25.1
>>> observed_measurement("CP(C)(=O)c1cccc2c(-c3nc(NC4(CO)CCOC4)ncc3C(F)(F)F)c[nH]c12 (single isomer, unassigned) [Compound 118]")
33.8
>>> observed_measurement("C[C@@H](CO)Nc1ncc(C(F)(F)F)c(-c2c[nH]c3c(P(C)(C)=O)c(C#N)ccc23)n1 [Compound 79]")
22.3
>>> observed_measurement("C[C@H](CO)Nc1ncc(C(F)(F)F)c(-c2c[nH]c3c(P(C)(C)=O)cccc23)n1 [Compound 93]")
27
>>> observed_measurement("C[C@@H](CO)Nc1ncc(C(F)(F)F)c(-c2c[nH]c3c(P(C)(C)=O)c(F)ccc23)n1 [Compound 195]")
24.4
>>> observed_measurement("C[C@@H](CO)Nc1ncc(Cl)c(-c2c[nH]c3c(P(C)(C)=O)cccc23)n1 [Compound 103]")
36.1
>>> observed_measurement("CP(C)(=O)c1cccc2c(-c3nc(NCC4CC(O)C4)ncc3C(F)(F)F)c[nH]c12 (stereo not shown) [Compound 126]")
24.6
>>> observed_measurement("CN(C)[C@H]1CC[C@H](Nc2ncc(C(F)(F)F)c(-c3c[nH]c4c(P(C)(C)=O)cccc34)n2)C1 [Compound 137]")
34.6
>>> observed_measurement("C[C@@H](CO)Nc1ncc(C(F)(F)F)c(-c2c[nH]c3c(P(C)(C)=O)cc(F)cc23)n1 [Compound 158]")
28.6
>>> observed_measurement("CP(C)(=O)c1cccc2c(-c3nc(NC4(CO)CC4)ncc3C(F)(F)F)c[nH]c12 [Compound 94]")
31.4
>>> observed_measurement("CP(C)(=O)c1cccc2c(-c3nc(NC4(CO)CC(F)(F)C4)ncc3C(F)(F)F)c[nH]c12 [Compound 96]")
26.1
>>> observed_measurement("CC(O)[C@H](C)Nc1ncc(C(F)(F)F)c(-c2c[nH]c3c(P(C)(C)=O)cccc23)n1 (single isomer, unassigned) [Compound 129]")
32.4
>>> observed_measurement("CC1(C)COCC(Nc2ncc(C(F)(F)F)c(-c3c[nH]c4c(P(C)(C)=O)cccc34)n2)CN1 (single isomer, unassigned) [Compound 91]")
27.3
>>> observed_measurement("CP(C)(=O)c1cccc2c(-c3nc(N[C@H]4CC[C@@H]4O)ncc3C(F)(F)F)c[nH]c12 [Compound 154]")
26.4
>>> observed_measurement("CP(C)(=O)c1cccc2c(-c3nc(NCC4CC4CO)ncc3C(F)(F)F)c[nH]c12 (single isomer, unassigned) [Compound 143]")
32.5
>>> observed_measurement("CC[C@@H](CO)Nc1ncc(C(F)(F)F)c(-c2c[nH]c3c(P(C)(C)=O)cccc23)n1 [Compound 88]")
29.2
>>> observed_measurement("CP(C)(=O)c1cccc2c(-c3nc(NC[C@H]4C[C@](C)(O)C4)ncc3C(F)(F)F)c[nH]c12 [Compound 127]")
22.4
>>> observed_measurement("CP(C)(=O)c1cccc2c(-c3nc(NCC(F)(F)CO)ncc3C(F)(F)F)c[nH]c12 [Compound 102]")
26.8
